Let's look at some compounds and their measured activity coefficient.
Assay: activity coefficient (dimensionless); of the first substance listed, at infinite dilution; xn = mol fraction of the nth substance listed
Settings: 318.15 K; 101 kPa; Liquid; Chromatography; x1 = 0
Result type: activity coefficient

| Compound | Result type | Measurement |
| --- | --- | --- |
| CCc1ccccc1 [ethylbenzene] + CCn1cc[n+](C)c1.N#C[B-](C#N)(C#N)C#N | activity coefficient | 2.62 |
| Cc1ccccc1 [toluene] + CCn1cc[n+](C)c1.N#C[B-](C#N)(C#N)C#N | activity coefficient | 1.68 |
| Cc1cccc(C)c1 [1,3-dimethylbenzene] + CCn1cc[n+](C)c1.N#C[B-](C#N)(C#N)C#N | activity coefficient | 2.62 |
